Listing: GI50 of selected compounds
Test system: SF-539 CNS
Test: NCI tumour cell line growth inhibition, 48 h

The cases that follow already have their GI50 on record.
[
  {
    "structure.notation": "C/C(=N\\NC(=O)c1ccc(C(C)(C)C)cc1)c1ccc(O)cc1O",
    "GI50": "0.648 µM"
  },
  {
    "structure.notation": "Cc1nc2ccc(Nc3nc(Cl)nc(Nc4ccc(F)cc4)n3)cc2n1Cc1ccccc1",
    "GI50": "4.53 µM"
  },
  {
    "structure.notation": "COc1cccc(C(=O)c2sc(Nc3ccc(N4CCN(C(C)C)CC4)cc3)nc2N)c1",
    "GI50": "1.55 µM"
  },
  {
    "structure.notation": "CCN(Cc1cccnc1)c1ccc(CO)c(Cl)c1",
    "GI50": "> 100 µM"
  }
]

Please examine the following record next.
Name the recorded GI50 for CS(=O)(=O)c1ccc(Oc2cc(F)cc(C#N)c2)c2c1[C@H](O)[C@H](F)[C@H]2F .
> 100 µM

###

Test system: BT-549 breast
Assay: NCI tumour cell line growth inhibition, 48 h
measurement.type: log10(TGI) (log10 of the value in µM)
# log10 transformed; quantity=TGI; unit=µM

[
  {
    "compound": "Cc1[nH]c(-c2ccccc2)c(O)c1C(=O)OC12CC3CC(CC(C3)C1)C2",
    "log10(TGI)": 1.50
  },
  {
    "compound": "Cc1ccc(C(=Nc2ccccc2)N=P(c2ccccc2)(c2ccccc2)c2ccccc2)cc1",
    "log10(TGI)": 0.60
  },
  {
    "compound": "CC(C)CC(NC(=O)C(CSc1ccc([N+](=O)[O-])cc1)Cc1ccccc1)C(=O)Nc1ccccc1 (stereo not given)",
    "log10(TGI)": 1.77
  },
  {
    "compound": "COc1ccc2nc3cc(Cl)ccc3c(Nc3ccc(O)c(CN4CCN(C)CC4)c3)c2c1",
    "log10(TGI)": 1.59
  },
  {
    "compound": "CCN(CC)CCOc1cccc2nc3c(cc12)Cn1c-3cc2c(c1=O)COC(=O)C2(O)CC (stereo not given)",
    "log10(TGI)": 1.24
  }
]

Name the recorded log10(TGI) for Cc1ccc(C2C(C(=O)C(C)(C)C)N2S(=O)(=O)c2ccc(C)cc2)cc1 (stereo not given) .
1.57

Name the recorded log10(TGI) for COc1cc(/C=C2\CN(S(=O)(=O)c3ccc(C)cc3)C/C(=C\c3cc(CN4CCOCC4)c(O)c(OC)c3)C2=O)cc(CN2CCOCC2)c1O .
1.83

Name the recorded log10(TGI) for Cc1cccc2c1CC1(Cc3ccccc3C1=O)C2=O (stereo not given) .
1.91

Name the recorded log10(TGI) for CN(C)c1ccc(/C=C2\C[C@H]3[C@@H]4CCc5cc(OCCN6CCCC6)ccc5[C@H]4CC[C@]3(C)[C@H]2O)cc1 .
1.49

###

Test system: TK-10 renal
Assay: NCI tumour cell line growth inhibition, 48 h
measurement.type: TGI

[
  {
    "molecule": "Cc1ccc(S(=O)(=O)n2cc(/C=C/C#N)c(/C=C/C#N)c2)cc1",
    "measured.value": "> 100 µM"
  },
  {
    "molecule": "N#CC12CC3=C(N=C1NC1=C(CCc4ccccc41)C2)c1ccccc1CC3 (stereo not given)",
    "measured.value": "65.8 µM"
  },
  {
    "molecule": "O=C(COc1ccc2c(=O)cc(-c3ccc(Cl)cc3)oc2c1)N1CCN(c2ccccc2)CC1",
    "measured.value": "> 100 µM"
  },
  {
    "molecule": "COC(=O)C1CC(C(=O)OC)c2nc3cc([N+](=O)[O-])ccc3nc21 (stereo not given)",
    "measured.value": "> 100 µM"
  }
]

Please examine the following record next.
Name the recorded TGI for COC1CC(C)(NC(C)=O)C2OC(c3ccccc3)OCC2O1 (stereo not given) .
> 100 µM

The origin of these recorded values is PubChem BioAssay (NCI).
